# testedTarget: human RXFP1 (Homo sapiens, UniProt Q9HBX9)
# Sequence (Q9HBX9 whole entry): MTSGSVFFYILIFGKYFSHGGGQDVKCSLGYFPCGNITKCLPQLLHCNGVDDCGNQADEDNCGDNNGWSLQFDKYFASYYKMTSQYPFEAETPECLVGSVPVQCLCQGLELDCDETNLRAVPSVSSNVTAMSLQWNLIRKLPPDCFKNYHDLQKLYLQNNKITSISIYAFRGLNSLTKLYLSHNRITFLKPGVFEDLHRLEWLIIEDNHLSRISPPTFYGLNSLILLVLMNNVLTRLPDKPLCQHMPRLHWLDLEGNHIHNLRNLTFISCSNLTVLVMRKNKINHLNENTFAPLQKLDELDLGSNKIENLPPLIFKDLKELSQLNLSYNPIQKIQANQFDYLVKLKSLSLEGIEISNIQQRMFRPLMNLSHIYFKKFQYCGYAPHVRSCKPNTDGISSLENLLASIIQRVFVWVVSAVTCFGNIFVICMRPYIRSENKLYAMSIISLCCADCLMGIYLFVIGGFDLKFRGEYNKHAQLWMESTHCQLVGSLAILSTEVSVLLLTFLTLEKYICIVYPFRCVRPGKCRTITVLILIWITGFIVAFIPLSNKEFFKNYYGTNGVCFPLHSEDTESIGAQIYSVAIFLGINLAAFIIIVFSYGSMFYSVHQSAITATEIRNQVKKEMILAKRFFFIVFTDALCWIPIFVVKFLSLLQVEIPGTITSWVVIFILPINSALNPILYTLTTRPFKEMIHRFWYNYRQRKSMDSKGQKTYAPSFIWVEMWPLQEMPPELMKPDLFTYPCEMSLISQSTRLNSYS
# procedureDetails: RXFP1 Hu cAMP (Test A)
# Type: cell-based
# Parameters: expressed in transfected cells; host or cells: Jump-In T-REx CHO-K1 cells (ThermoFisher), induced with 10 ng/ml doxycycline for 24 h
# measurementParameters: RXFP1 Hu cAMP
outcomeMeasure: Test A Sinf (%)
Enter your answer as a number in %; do not include the unit.

These recorded examples may help you get a feel for the data.
{"molecule": "COc1cc(F)c(OCc2ccc(C(C)(C)C(=O)O)cc2)cc1C(=O)N[C@H]1[C@@H](C(=O)Nc2cccc(S(=O)(=O)C(F)(F)F)c2)[C@@H]2C=C[C@H]1C2 (racemic)", "Test A Sinf (%)": 104}
{"molecule": "CC1(CNC(=O)[C@H]2[C@@H]3CC[C@@H](C3)[C@H]2NC(=O)c2cc(O[C@H]3CC[C@@](C)(C(=O)O)CC3)c(F)cc2C#N)CCC1", "Test A Sinf (%)": 100}
{"molecule": "COc1cc(F)c(OCc2cccc(C(=O)O)c2)cc1C(=O)N[C@H]1[C@@H](C(=O)Nc2cccc(S(=O)(=O)C(F)(F)F)c2)[C@@H]2C=C[C@H]1C2 (racemic)", "Test A Sinf (%)": 108}

-- ask Give its Test A Sinf value. Item: "COc1cc(C)c(O[C@H]2CC[C@@](C)(C(=O)O)CC2)cc1C(=O)N[C@@H]1[C@H]2CC[C@H](C2)[C@@H]1C(=O)NC12CC(F)(C1)C2"
-- reply 90

-- ask Note, next up: COc1cc(F)c(O[C@H]2CC[C@@](C)(C(=O)O)CC2)cc1C(=O)N[C@@H]1[C@H]2CC[C@H](C2)[C@@H]1C(=O)N[C@H]1CCCC1(C)C (relative stereo)
-- reply 91
